Data origin, for the record: the supplement of paper PMC10567573

B1: HESX1 (parent)
chain: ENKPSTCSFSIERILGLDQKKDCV

- Variants of: B1
- METHOD_NOTES: protein stability index of a GFP-peptide fusion (GPS, HEK-293T) (PSI 1-6); higher = more stable;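 note: lentivirally expressed fusions sorted by FACS into six bins by GFP to DsRed ratio, PSI derived from sequencing read proportions per bin multiplied by bin number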
- TEST_CONTEXT: c terminus: a fixed tail appended
Measured protein stability index of individual entries
MEASUREMENT_LABEL: protein stability index

>>> df
    mutation_descriptor  measurement
 0                 Q19L         2.62
 1                  K3T         2.53
 2                 L15S          3.5
 3                  N2Q         2.93
 4                 L17T         3.78
 5                  T6S         3.12
 6                  S8G         2.51
 7                  N2W         1.91
 8                 S10L         3.05
 9                  K3Y         2.83
10                  P4N         2.79
11                 L17Y         2.56
12                 R13D          3.9
13                  S5E         3.77
14                 Q19N         2.64
15                  T6C         2.43
16                 K21P         2.67
17                 K21N         2.62
18                  K3A         3.59
19                  F9K          4.3
20                 K21S         2.95
21                  N2Y         1.77
22                 R13I         1.82
23                  S5L         2.18
24                  F9C         3.43
25                  S8W         2.14
26                  K3G          3.1
27                 D18L         2.12
28                 E12I         1.61
29                  P4H         2.52
30                  P4K          2.7
31                 E12V         1.64
32                 K21H         2.35
33                  C7L         2.94
34                  N2G         2.49
35                 S10M         2.48
36                 E12G         3.65
37                 I14T         4.16
38                 I11V         2.91
39                 D18I         1.74
40                 S10V         2.29
41                 G16Y         2.28
42                 I11K            4
43                  F9I         3.43
44                 D22S         3.41
45                 L15M         2.12
46                 Q19Y         1.97
47                 V24K         4.15
48                  K3R         2.58
49                 D18A         2.94
50                 L15D         4.06
51                  N2H         2.57
52                 D18G         2.55
53                 L17N         4.42
54                 S10G         3.27
55                 V24L         3.03
56                 D18V          1.8
